Reference source for all entries: ChEMBL document CHEMBL1150275

experiment: Ratio of drug level in brain to plasma in mouse at 5 mg/kg, iv after 4 hrs; type: ADME, organism-based; parameters: dose 5 mg/kg, route intravenous
observed.property: Kp at 4 h

Some compounds with recorded Kp at 4 h:
Prompt line: Quick one: Kp at 4 h of `CNCC(=O)N[C@H](c1cc(Cl)ccc1N1CCN(C(=O)[C@H](C)Cc2ccc(Cl)cc2OC)CC1)C(C)C` ?
Response line: 1.3

Prompt line: Any idea what Kp at 4 h was measured for `CNCC(=O)N[C@H](c1cc(C)ccc1N1CCN(C(=O)[C@H](C)Cc2ccc(Cl)cc2F)CC1)C(C)C` ?
Response line: 0.2

Prompt line: What measured Kp at 4 h goes with `COc1cc(Cl)ccc1C[C@@H](C)C(=O)N1CCN(c2ccc(Cl)cc2[C@@H](NC(=O)C2CNC2)C(C)C)CC1` ?
Response line: 0.4

Prompt line: Tell me the measured Kp at 4 h of `Cc1ccc(N2CCN(C(=O)[C@H](C)Cc3ccc(Cl)cc3)CC2)c([C@@H](NC(=O)CCN(C)C)C(C)C)c1` , please.
Response line: 0.1

Prompt line: What does the record list as Kp at 4 h for `COc1cc(Cl)ccc1C[C@@H](C)C(=O)N1CCN(c2ccc(Cl)cc2[C@@H](NC(=O)[C@@H](C)N)C(C)C)CC1` ?
Response line: 1

P = COc1cc(Cl)ccc1C[C@@H](C)C(=O)N1CCN(c2c(F)cccc2[C@@H](NC(=O)C2CNC2)C(C)C)CC1
Q = CNCCN[C@H](c1cccc(F)c1N1CCN(C(=O)[C@H](C)Cc2ccc(Cl)cc2)CC1)C(C)C
R = CC(C)[C@H](NC(=O)CCN(C)C)c1cccc(F)c1N1CCN(C(=O)[C@H](C)Cc2ccc(Cl)cc2)CC1
Prompt line: Write the entries in order, lowest recorded Kp at 4 h first. Write the labels, ordered according to the request.
Response line: P, R, Q
